# method-notes: Caspase-3/7 induction in CHO-K1 cells by small molecules, qHTS cell viability counter screen (AID 1346979); further: nearly all actives have a fitted effect of over 35% in size; further: potency means the concentration at half of the fitted maximal effect
# details: CellTiter-Fluor fluorescence, 17 h; series mostly up to 92.4 µM
Results filed as inconclusive are left out. Activity calls are given as the source filed them. The call rests on the fitted dose curve; in most records, active means well fitted cell-killing curve with a large enough effect in the repeat runs; inconclusive means weak or mixed curves, or effect the other way; inactive means no such curve, though single readings can be large or run the other way.
experimental-endpoint: Potency

Use these answered entries as a reference point.
1) C=CC(=O)OCCCCO : 54.5 µM (active)
2) COC(=O)C(C)N(C(=O)Cc1ccccc1)c1c(C)cccc1C (stereo not drawn) : inactive
3) ClC=C(Cl)Cl : inactive
4) CC(C)(C)c1cc([N+](=O)[O-])cc([N+](=O)[O-])c1O : 17.2 µM (active)
5) CCCCCC[N+](=O)[O-] : inactive
6) ClCc1cccc(Cl)c1 : inactive
7) Cn1sc(Cl)cc1=O : inactive
8) O=Cc1ccc(Cl)cc1Cl : inactive
9) O=C1C(=O)c2cccc3cccc1c23 : 21.7 µM (active)
10) CN1C(=O)C(O)N=C(c2ccccc2)c2cc(Cl)ccc21 (stereo not drawn) : inactive

Lookup: For the compound `O=C(O)C(F)(F)C(F)(F)C(F)(F)C(F)(F)C(F)(F)C(F)(F)C(F)(F)C(F)(F)C(F)(F)C(F)(F)F` , report Potency.
Found: inactive

Lookup: Give the reported value of Potency for this record: Cn1cc[n+](C)c1 (tested in a mixture with another compound)
Found: inactive

Lookup: Tell me its Potency given `O=C(Nc1ccccc1)Nc1ccnc(Cl)c1` as the entry.
Found: 48.6 µM (active)

* * *

# test-system: Retinoic acid receptor RXR-alpha (Homo sapiens)
# method-notes: qHTS assay to identify small molecule agonists of the RXR signaling pathway (AID 1159527); further: nearly all actives have a fitted effect of over 35% in size
# details: HEK293T RXRa-UAS-bla, beta-lactamase ratio, 16 h; series mostly up to 76.8 µM
Records with an inconclusive call do not appear. Activity calls are given as the source filed them. Calls follow the shape of the full dose curve.
Give one outcome, nothing more. List: t (active), f (inactive)

1) CCC(COC(=O)c1cc(OC)c(OC)c(OC)c1)(c1ccccc1)N(C)C (stereo unspecified) : f
2) C/C=C/C=O : f
3) COc1cc(Cl)c(OC)cc1Cl : f

Lookup: Tell me the assay call for `CC1(C)[C@H](C=C(Cl)Cl)[C@@H]1C(=O)O[C@@H](C#N)c1cccc(Oc2ccccc2)c1` please.
Found: f

Lookup: For this compound, state the assay outcome: `O=C(O)c1ccccc1C(=O)Nc1cccc2ccccc12`
Found: f

Lookup: Recorded test outcome, item `O=C(C(Cl)(Cl)Cl)C(Cl)(Cl)Cl`
Found: f

Lookup: For `Clc1cc(C(Cl)(Cl)Cl)cnc1Cl` , which call appears in the assay record?
Found: f

Lookup: # outcome recorded in this test, key = `O=C(CBr)OCc1ccccc1`
Found: f

Lookup: Please indicate how the test categorized CC(Cl)C(C)Cl (stereo unspecified) .
Found: f

Lookup: Per the records of this test, what outcome belongs to `O=[N+]([O-])c1ccc(F)c([N+](=O)[O-])c1` ?
Found: f

Lookup: In this assay, the call recorded for `O=C(O)C(F)(F)C(F)(F)C(F)(F)C(F)(F)C(F)(F)C(F)(F)C(F)(F)C(F)(F)C(F)(F)C(F)(F)F` was what?
Found: t

Lookup: What is the recorded call for this compound in the test? CC1Sc2c(C(=O)O)c(=O)c3cc(F)c(N4CCNCC4)cc3n21 (stereo unspecified)
Found: f

Lookup: Hi, do you know how `CC(C)O.CC(C)O.OCCN(CCO)CCO.OCCN(CCO)CCO.[Ti]` came out in this test?
Found: f

Lookup: What is the recorded call for this compound in the test? COC(=O)c1cncn1C(C)c1ccccc1 (stereo unspecified)
Found: f

Lookup: Just curious, what result did `Cl/C=C\C[N+]12CN3CN(CN(C3)C1)C2` get here?
Found: f

Lookup: What call does the record list for `C=CC(=O)OC` ?
Found: f

Lookup: Assay outcome for ClCC(Br)CBr (stereo unspecified) : what was it?
Found: f

Lookup: Status in this test for `C=CCN1CC[C@]23c4c5ccc(O)c4O[C@H]2C(=O)CC[C@@]3(O)[C@H]1C5` ?
Found: f

Lookup: Hi team, can someone confirm the assay call for `COP(=S)(OC)Oc1cc(Cl)c(I)cc1Cl` ?
Found: f

Lookup: Which result was noted for this compound in the test: `C=COC(C)=O`
Found: f

Lookup: Each compound tested received a call. Report the one for `Brc1ccc(Oc2ccccc2)cc1` .
Found: f

Lookup: Assay result, entry `ClC=C(Cl)Cl` — outcome?
Found: f

Lookup: Per the records of this test, what outcome belongs to `CCCCNP(N)(N)=S` ?
Found: f

Lookup: In this assay, the call recorded for `ClP(Cl)(Cl)(Cl)Cl` was what?
Found: f

Lookup: How was `CN(N=O)c1ccc([N+](=O)[O-])cc1` classified in this test?
Found: f

Lookup: // outcome(item) with item = `COP(=O)(OC)O/C(=C/Cl)c1cc(Cl)c(Cl)cc1Cl`
Found: f

* * *

# method-notes: qHTS assay to identify small molecule antagonists of the estrogen related receptor signaling pathway with the pleiotropic PPARgamma coactivator (PGC) from Tox21 10K library - cell viability counter screen (AID 1224840); further: nearly all actives have a fitted effect of over 40% in size
# details: PGC/ERR reporter cells viability, CellTiter-Fluor, 17.5 h; series mostly up to 92.4 µM
Inconclusive results are not listed. The source made the active and inactive calls. The call rests on the fitted dose curve; in most records, active means well fitted cell-killing curve with a large enough effect in the repeat runs (not every such curve was filed as active); inconclusive means weak or mixed curves, or effect the other way; inactive means no such curve, though single readings can be large or run the other way.
// classify into y for active, n for inactive

// below: answered molecules
1. c1ccc(C2CC2)c(OCC2=NCCN2)c1 : n
2. Sc1ccccc1Cl : n
3. N#Cc1ccc(Cl)cc1 : n
4. O=C(NC(=O)c1c(F)cccc1F)Nc1cc(Cl)c(Oc2ncc(C(F)(F)F)cc2Cl)c(Cl)c1 : n
5. Cc1ccc2ccccc2c1 : n

Lookup: Short answer needed: outcome of this test for `O=C(CBr)OCc1ccccc1` ?
Found: n

Lookup: Called result for COC(=O)c1cncn1C(C)c1ccccc1 (configuration not stated)
Found: n

* * *

# method-notes: qHTS assay for identifying genotoxic compounds that show differential cytotoxicity against isogenic chicken DT40 cell lines with known DNA damage response pathways - wild type cell line (AID 743012); further: nearly all actives have a fitted effect of over 60% in size
# details: DT40 wild type chicken cells viability, CellTiter-Glo, 40 h; series mostly up to 68.4 µM
Results filed as inconclusive are left out. Active and inactive are the calls of the source. Calls follow the shape of the dose curve; as a rule, active = well fitted cell-killing curve with a large enough effect in the repeat runs; inconclusive = weak or mixed curves, or effect the other way; inactive = no such curve, though single readings can be large or run the other way.
Please answer using one outcome listed in yes (1) (active), no (0) (inactive)

Answered examples (3):
1) COc1nn(CSP(=S)(OC)OC)c(=O)s1 : yes (1)
2) S=C=NCc1ccccc1 : no (0)
3) CCBr : no (0)

Lookup: Record request — test call for `COc1nn(C(=O)NS(=O)(=O)c2ccccc2OC(F)(F)F)c(=O)n1C`
Found: no (0)

Lookup: Field: outcome | Entry: CCC(COC(=O)c1cc(OC)c(OC)c(OC)c1)(c1ccccc1)N(C)C (centres undefined)
Found: yes (1)

Lookup: Field: outcome | Entry: `O=S1(=O)OC(c2cc(Br)c(O)c(Br)c2)(c2cc(Br)c(O)c(Br)c2)c2ccccc21`
Found: yes (1)

Lookup: Called result for `N#C/C(N)=C(/N)C#N`
Found: no (0)

Lookup: Record request — test call for CCC(Cl)CCl (centres undefined)
Found: no (0)

Lookup: // return assay outcome for `C/C=C/C=O`
Found: no (0)

Lookup: Short answer needed: outcome of this test for `Brc1ccccc1` ?
Found: no (0)

Lookup: // return assay outcome for `NNC(=O)c1cccnc1`
Found: no (0)

Lookup: Could you please tell me the result logged for `O=C(OC1CCCCC1)c1ccccc1C(=O)OC1CCCCC1` in this assay?
Found: yes (1)

Lookup: Per the records of this test, what outcome belongs to COC(=O)C(C)N(C(=O)Cc1ccccc1)c1c(C)cccc1C (centres undefined) ?
Found: yes (1)

Lookup: Look up the recorded call for `O=C1CN=C(c2ccccc2)c2cc(Cl)ccc2N1CC1CC1` in this test.
Found: yes (1)

* * *

# method-notes: qHTS RealTime-Glo MT Cell Viability Assay in HepG2 cells - 40 hour (AID 1224870); further: nearly all actives have a fitted effect of over 50% in size
# details: RealTime-Glo luminescence; series mostly up to 76.8 µM
Inconclusive results are not listed. The source made the active and inactive calls. The call rests on the fitted dose curve; in most records, active means well fitted cell-killing curve with a large enough effect in the repeat runs; inconclusive means weak or mixed curves, or effect the other way; inactive means flat fitted curve, though single readings scatter.
Bench note: report the call from 1 (yes) (active), 0 (no) (inactive)

1. CC(=O)c1cc2c(cc1C)C(C)(C)C(C)CC2(C)C (centres undefined) : 0 (no)
2. CN1C(=O)NC(=O)C(C)(C2=CCCCC2)C1=O (centres undefined) : 0 (no)
3. CCOP(=O)(OCC)Oc1ccc([N+](=O)[O-])cc1 : 0 (no)

Lookup: Lab log entry: `O=C(O)COc1ccc(Cl)cc1` — outcome as called in the assay?
Found: 0 (no)

Lookup: Called result for `Cl/C=C\Cl`
Found: 0 (no)

Lookup: Test call for this molecule, please: `CC(=O)[C@H]1CC[C@H]2[C@@H]3CC[C@H]4C[C@](C)(O)CC[C@]4(C)[C@H]3CC[C@]12C`
Found: 0 (no)

Lookup: Query: recorded result category for `CO/C=C(/C(=O)OC)c1ccccc1COc1cccc(C(F)(F)F)n1` in this test
Found: 0 (no)

Lookup: What classification did `CCCC(=O)Cl` end up with in this test?
Found: 0 (no)

Lookup: Can you look up the reported call for `O=C(CBr)Nc1ccc(Cl)cc1C(=O)c1ccccc1F` for me?
Found: 0 (no)

Lookup: Per the assay record, what outcome was assigned to `CCCCCCCCOC(=O)c1ccc(C(=O)OCCCCCCCC)c(C(=O)OCCCCCCCC)c1` ?
Found: 0 (no)

Lookup: Hi, sorry to bother you, what did the test record for `CCCCCCC#N` ?
Found: 0 (no)

Lookup: Recorded test outcome, item CNC(C)Cc1ccccc1OC (centres undefined)
Found: 0 (no)

Lookup: Kindly provide the recorded test outcome for the following molecule: `CCOP(=S)(OCC)SCn1nnc2ccccc2c1=O`
Found: 0 (no)

Lookup: Please share the test call associated with ClCC(Br)CBr (centres undefined) .
Found: 0 (no)

Lookup: Recorded test call requested for O=C1C(Cl)C(CCl)CN1c1cccc(C(F)(F)F)c1 (centres undefined)
Found: 0 (no)

Lookup: Check the results log: what was the call for `CC(=O)C(C)(C)C` ?
Found: 0 (no)

Lookup: # lookup: test call for `CC(C)O.CC(C)O.OCCN(CCO)CCO.OCCN(CCO)CCO.[Ti]`
Found: 0 (no)

Lookup: Outcome? `Nc1nc(N)nc(N)n1`
Found: 0 (no)

Lookup: Tell me the recorded outcome of this test for `O=Cc1ccc(Cl)cc1Cl` .
Found: 0 (no)

Lookup: Outcome? `ClCc1cccc(Cl)c1`
Found: 0 (no)

Lookup: Which outcome did this test record for the molecule `C=CCN1CC[C@]23c4c5ccc(O)c4O[C@H]2C(=O)CC[C@@]3(O)[C@H]1C5` ?
Found: 0 (no)

Lookup: Can you look up the reported call for `C=CC(=O)OCC(C)C` for me?
Found: 0 (no)
